B1: RTN1 (parent)
chain: VVAYLALAALSATISFRIYKSVLQ

- Variants of: B1
- ASSAY NOTES: protein stability index of a GFP-peptide fusion (GPS, HEK-293T) (PSI 1-6); higher = more stable;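 further: lentivirally expressed fusions sorted by FACS into six bins by GFP to DsRed ratio, PSI derived from sequencing read proportions per bin multiplied by bin number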
- ASSAY SETUP: c terminus: a fixed tail appended
The label depends only on protein stability index: Criterion met if it is at least 2, Criterion not met if it is smaller.

Observe how each entry below is paired with its result.
F16Q :: Criterion met
F16K :: Criterion not met
V2F :: Criterion met

Moving on to another variant below.
Evaluate Y4N : protein stability index at minimum 2?
Criterion met
